assay-details: protein stability index of a GFP-peptide fusion (yeast GPS) (PSI 1-4); higher = more stable; sorted into four equal gates, so the index is relative within each strain
condition-notes: ubr1∆
endpoint-label: protein stability index
Answer with the value's number alone.

// solved cases for protein stability index follow
{"columns": ["input-sequence", "protein stability index"],
 "data": [
  ["KEDHPLEFYKDKFFNEV [SIR3]", 3.43],
  ["GQGEQVDDVLETISAIE [RPN1]", 2.91],
  ["ARKHKLKTLVQGPRSYF [RPS27A]", 2.72],
  ["DEEMAVLTRMDEDRSKK [SNF2]", 2.57],
  ["VSMKANKYQIKKAVKEL [RPL25]", 2.97]
]}

Query: Which protein stability index value belongs to ARENAPSIIFIDEVDSI [RPT3] ?
Response: 2.41

Query: Which protein stability index value belongs to NLKDLNNVKQMVMAGSK [RPO21] ?
Response: 1.92

Query: Which protein stability index value belongs to TPKGNESEQELSLHTGF [MTR3] ?
Response: 3.17

Query: Which protein stability index value belongs to IEKTESVDKKVDSGEER [SWI3] ?
Response: 3.46

Query: Which protein stability index value belongs to IFCVGSGQTFAYGVLDS [PRE2] ?
Response: 2.33

Query: Which protein stability index value belongs to KYDRKVPSPTGEYVKEP [RPO21] ?
Response: 3.09

Query: Which protein stability index value belongs to QTATQLLERGRLRKRVT [SMC2] ?
Response: 2.42

Query: Which protein stability index value belongs to TNTFGSNSAGTSLFGSS [YJL041W/NSP1] ?
Response: 3.15

Query: Which protein stability index value belongs to SSLRNQELLNAETLCFT [RPN3] ?
Response: 3.11

Query: Which protein stability index value belongs to EEELFEVTKEEDIIANY [RRP43] ?
Response: 3.43

Query: Which protein stability index value belongs to GNDAKPAKVEDVQKSSD [YLR335W/NUP2] ?
Response: 3.13

The measured values listed here are drawn from the supplement of paper PMC9732359.
